System: EKVX NSCLC
Assay: NCI-60 one-dose screen, 48 h (100 = growth as untreated, 0 = no growth, -100 = all killed)
Conditions: 10 µM
Experimental: Growth inhibition of the EKVX human Non-Small Cell Lung tumor cell line is measured as a screen for anti-cancer activity. Cells are grown in 96 well plates and exposed to the test compound for 48 hours. Compounds are tested at a single concentration, which is 10^-5 M for most compounds. The reported endpoint is percent growth (GI% or GIPRCNT), where numbers from 0 - 100% represent growth inhibition, and numbers from -100% - 0 represent cell death. […]
The panel holds about 83,000 compounds, 20% with a hit somewhere; the sample as a whole holds those more often.
Measured Attribute: growth (%)
Numbers only, in %.

Please review the following examples before continuing.
COc1cc(C(O)C2C(=O)OCC2C2(c3ccc4c(c3)OCO4)SCCCS2)cc(OC)c1OC (stereo unspecified) : 88.7
c1ccc2c(c1)OC1OC2Oc2ccccc21 : 105
CC1=C/C(O)CC(=O)Cc2nc(co2)C(=O)N2CCC=C2C(=O)OC(C(C)C)C(C)/C=C\C(=O)NC/C=C\1 (stereo unspecified) : 90.2
O=CN1CCCCC1 : 94.9
CC(=O)NCC(=O)c1ccc([N+](=O)[O-])cc1 : 102

Shifting focus to the compound that follows.
Please give the measured growth for this compound: CN(C)c1ccc(/C=C\C(=O)c2ccccc2)cc1 105

====

Tested on: SNB-75 CNS
Assay: NCI-60 one-dose screen, 48 h (100 = growth as untreated, 0 = no growth, -100 = all killed)
Settings: 10 µM unless noted
This is part of a sample that, as a whole, favours compounds with a hit. Of some 83,000 tested, about 20% had one in any assay.
Measured Attribute: growth (%)
Give bare numbers, in %.

Please review the following examples before continuing.
Nc1ccc2c(O)cc(S(=O)(=O)O)cc2c1 : 99.7
N#CC(C#N)N=Nc1cc(Cl)ccc1Cl : 74.8
N#CC(C#N)N=Nc1ccc(Cl)cc1 : 72

For each listed entry, give its growth.
1. CC(=O)NCC(=O)c1ccc([N+](=O)[O-])cc1
2. CCCCNc1ccc(Nc2ccccc2)cc1
3. ClCCOCCOc1ccc(C2CCCCC2)cc1
4. COc1ccc(C(=O)CC(c2ccccc2)C(C#N)c2ccccc2)cc1 (stereo not given)
5. c1ccc2c(c1)OC1OC2Oc2ccccc21

[99.1, 84.2, 98.2, 83.8, 90]

For each listed entry, give its growth.
1. Oc1ccc(Cc2ccccc2Cl)c(O)c1
2. NN1CCOC(c2ccccc2)C1 (stereo not given)

80.5
109

====

Test system: T-47D breast
Assay: NCI-60 one-dose screen, 48 h (100 = growth as untreated, 0 = no growth, -100 = all killed)
Details: 10 µM unless noted
This is part of a sample that, as a whole, favours compounds with a hit. Of some 83,000 tested, about 20% had one in any assay.
Measured Attribute: growth (%)
Give bare numbers, in %.

Please review the following examples before continuing.
c1ccc2c(c1)OC1OC2Oc2ccccc21 : 100
Nc1ncnc2c1ncn2C1OC(COP(=O)(O)O)C(O)C1O (configuration not stated) : 123

For each listed entry, give its growth.
1. COc1cc(C(O)C2C(=O)OCC2C2(c3ccc4c(c3)OCO4)SCCCS2)cc(OC)c1OC (configuration not stated)
2. CC1(C)COC(=S)N1
3. CCCCOC(=O)/C=C\C(=O)NC(N)=O
4. OCCN1CCCCCCC1
5. O=C(Cc1ccccc1)c1ccc(O)c(Cl)c1

1. 107
2. 99.9
3. 60.4
4. 95.6
5. 43.9
